Taken from patent US11198696B2.

# study target: TRPC5 (Homo sapiens)
# Construct: expressed in transfected cells; host or cells: HEK293 TREx cells, inducible TRPC5 expression, induced 20-48 hours
# Sequence (Q9UL62 1-973): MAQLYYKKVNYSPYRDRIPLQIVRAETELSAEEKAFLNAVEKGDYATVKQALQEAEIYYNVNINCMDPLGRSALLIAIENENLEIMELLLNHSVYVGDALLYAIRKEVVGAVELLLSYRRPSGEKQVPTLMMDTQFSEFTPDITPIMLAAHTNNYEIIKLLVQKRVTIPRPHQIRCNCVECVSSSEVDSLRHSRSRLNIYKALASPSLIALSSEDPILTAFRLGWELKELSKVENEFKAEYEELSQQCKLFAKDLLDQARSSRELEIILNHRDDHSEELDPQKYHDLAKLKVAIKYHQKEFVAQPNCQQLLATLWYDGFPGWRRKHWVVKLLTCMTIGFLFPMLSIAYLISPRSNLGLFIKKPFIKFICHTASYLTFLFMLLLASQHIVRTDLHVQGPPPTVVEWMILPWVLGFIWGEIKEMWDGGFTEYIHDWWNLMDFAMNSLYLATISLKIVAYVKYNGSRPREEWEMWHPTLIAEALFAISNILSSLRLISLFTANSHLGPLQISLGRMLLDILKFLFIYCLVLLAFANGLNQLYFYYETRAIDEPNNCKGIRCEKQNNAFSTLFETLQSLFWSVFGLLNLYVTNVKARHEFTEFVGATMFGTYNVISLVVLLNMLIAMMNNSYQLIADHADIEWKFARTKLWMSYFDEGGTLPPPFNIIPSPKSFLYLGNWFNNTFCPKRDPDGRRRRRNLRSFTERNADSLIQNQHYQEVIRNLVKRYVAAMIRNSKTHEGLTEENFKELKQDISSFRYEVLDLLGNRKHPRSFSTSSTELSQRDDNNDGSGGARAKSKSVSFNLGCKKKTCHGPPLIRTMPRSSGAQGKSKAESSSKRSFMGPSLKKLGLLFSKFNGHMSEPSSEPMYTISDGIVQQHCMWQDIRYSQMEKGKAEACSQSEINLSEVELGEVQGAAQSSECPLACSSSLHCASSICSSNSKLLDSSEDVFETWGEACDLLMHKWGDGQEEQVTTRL
# procedure summary: Assay A: Determination of TRPC5-Inhibition (whole-cell patch clamp)
# Format: cell-based
# condition description: compounds of the present invention, TRPC5-expressing HEK293 TREx cells, LaCl3-activated current
In plain terms, low IC50, meaning strictly below 0.4 nM, gives true, and everything else gives false.

• CCn1c(=O)n(CCCO)c(=O)c2c1nc(-c1ccc(O[C@H]3CCC[C@@H]3C)nc1C)n2Cc1ccc(Cl)cc1 (racemic) = true
• CCn1c(=O)n(CCCO)c(=O)c2c1nc(-c1ccc(OC3CC(C)(C)C3)nc1C)n2Cc1ccccc1 = false
• CCn1c(=O)n(CCCO)c(=O)c2c1nc(-c1cc(F)c(OC3CCC3)nc1C)n2Cc1ccc(F)cc1 = true
• CCn1c(=O)n(CCCO)c(=O)c2c1nc(-c1ccc(OC3CCC3)nc1C)n2Cc1ccc(F)cc1 = false
• Cc1nc(OC2CC(C)C2)ccc1-c1nc2c(c(=O)n(CCCO)c(=O)n2C(C)C)n1Cc1ccc(F)cc1 (stereo not shown) = true
• Cc1nc(OC2CC=CC2)ccc1-c1nc2c(c(=O)n(CCCO)c(=O)n2C(C)C)n1Cc1ccccc1 = true
